FYI, the data here is from PubChem BioAssay (NCATS).

- Tested on: CRL-7250
- method.summary: Cytotoxic Profiling of Annotated Libraries Using Quantitative High-Throughput Screening (AID 1296008); note: nearly all actives have a fitted effect of over 60% in size; note: potency is the fitted concentration of half-maximal effect
- setup.conditions: Five cell lines viability, CellTiter-Glo ATP luminescence, 48-72 h
Inconclusive results are not listed. Active and inactive are the calls of the source. Calls come from the whole dose curve; as a rule, active = well fitted inhibition curve with a large enough effect; inconclusive = small, poorly fitted or top-dose-only effect; inactive = flat fitted curve, though single readings scatter.
quantity.kind: Potency

- C[C@@H]1CC[C@@]23CC[C@]4(C)[C@@](C=CC5[C@@]6(C)CC[C@H](O)C(C)(C)C6CC[C@]54C)(OC2=O)C3[C@H]1C (some centres undefined): inactive
- O=C(NCCCNc1nc(Nc2cccc(CN3CCOCC3)c2)ncc1C1CC1)C1CCC1: 5.8 µM (active)
- CC(=O)O[C@]1(C(C)=O)CC[C@H]2[C@@H]3CCC4=CC(=O)CCC4=C3[C@@H](c3ccc(N(C)C)cc3)C[C@@]21C: inactive
- COc1cc(O)c2c(c1)C1OC1C[C@H](O)[C@H](O)C(=O)/C=C\C[C@H](C)OC2=O (some centres undefined): 20.6 µM (active)
- CCCC(Nc1nc(-c2ccc(NC(=O)NCC)c(OC)c2)ncc1C)c1cccnc1 (centres undefined): 0.206 µM (active)
- Clc1cccc(COc2cncc(N3CCNCC3)n2)c1: inactive
- O=C(Nc1ccccc1C(=O)NC1CCCCNC1=O)c1cc2ccccc2s1 (centres undefined): inactive
- C=C1CCC2C(C)(C(=O)O)CCCC2(C)C1CCC1=CCOC1=O (centres undefined): inactive
- O=C(NO)c1cnc(N2CCN(S(=O)(=O)c3ccc4ccccc4c3)CC2)nc1: 7.96 µM (active)
